Assay: Evaluation of conversion rate to active form in buffer solution (Experimental Example 1)
Assay type: physicochemical
Conditions: pH7.0, 0.5 hr
READOUT: Residual rate (%)

1. C[C@H](N)C(=O)O[C@@H]1CN(C)CC[C@@H]1c1c(O)cc(O)c2c(=O)cc(-c3ccccc3Cl)oc12 [Comparative Example 7, reference compound]: 62.6
2. CN1CC[C@H](c2c(O)cc(O)c3c(=O)cc(-c4ccccc4Cl)oc23)[C@H](OC(=O)[C@@H](N)CO)C1 [Comparative Example 9, reference compound]: 75.8
3. CNCCN(C)C(=O)Oc1cc(O)c2c(=O)cc(-c3ccccc3Cl)oc2c1[C@H]1CCN(C)C[C@H]1O [Comparative Example 14, reference compound]: 0.0
4. CN1CC[C@H](c2c(OC(=O)N(C)CCN)cc(O)c3c(=O)cc(-c4ccccc4Cl)oc23)[C@H](O)C1 [Comparative Example 13, reference compound]: 9.3
5. CN1CC[C@H](c2c(O)cc(O)c3c(=O)cc(-c4ccccc4Cl)oc23)[C@H](OC(=O)CN)C1 [Comparative Example 8, reference compound]: 64.4

----------
Experiment: Stability evaluation of solution formulation (Experimental Example 2)
Type: physicochemical
Details: solution formulation, pH3.0, 1 week
READOUT: Production rate of Alvocidib (%)

1) CN1CC[C@H](c2c(OC(=O)N(C)CCN)cc(O)c3c(=O)cc(-c4ccccc4Cl)oc23)[C@H](O)C1 [Comparative Example 13, reference compound]: 0.2
2) CNCCN(C)C(=O)Oc1cc(O)c2c(=O)cc(-c3ccccc3Cl)oc2c1[C@H]1CCN(C)C[C@H]1O [Comparative Example 14, reference compound]: 2.7
3) CCCN(C[C@@H]1CCCCN1)C(=O)Oc1cc(O)c2c(=O)cc(-c3ccccc3Cl)oc2c1[C@H]1CCN(C)C[C@H]1O [Example 5]: 0.2
4) CCN(C[C@@H]1CCCCN1)C(=O)Oc1cc(O)c2c(=O)cc(-c3ccccc3Cl)oc2c1[C@H]1CCN(C)C[C@H]1O [Example 1, ditrifluoroacetate]: 0.0
5) CCCN(C[C@H]1CCCCN1)C(=O)Oc1cc(O)c2c(=O)cc(-c3ccccc3Cl)oc2c1[C@H]1CCN(C)C[C@H]1O [Example 6]: 0.5
6) CCN(C[C@H]1CCCCN1)C(=O)Oc1cc(O)c2c(=O)cc(-c3ccccc3Cl)oc2c1[C@H]1CCN(C)C[C@H]1O [Example 2]: 0.0

----------
Assay: Evaluation of conversion rate to active form in buffer solution (Experimental Example 1)
Assay type: physicochemical
Settings: pH7.0, 0 hr, 37° C., 25 umol/L in buffer solution
READOUT: Production rate of Alvocidib (%)

1) CCCN(C[C@H]1CCCCN1)C(=O)Oc1cc(O)c2c(=O)cc(-c3ccccc3Cl)oc2c1[C@H]1CCN(C)C[C@H]1O [Example 6]: 0.7
2) CN1CC[C@H](c2c(OC(=O)N(C)CC3CCCCN3)cc(O)c3c(=O)cc(-c4ccccc4Cl)oc23)[C@H](O)C1 (stereo partly shown) [Example 8]: 4.0
3) CCCN(CC1CCCCN1)C(=O)Oc1cc(O)c2c(=O)cc(-c3ccccc3Cl)oc2c1[C@H]1CCN(C)C[C@H]1O (stereo partly shown) [Example 9]: 2.2
4) CN1CC[C@H](c2c(OC(=O)N(Cc3ccccc3)CC3CCCCN3)cc(O)c3c(=O)cc(-c4ccccc4Cl)oc23)[C@H](O)C1 (stereo partly shown) [Example 15]: 2.8
5) CN1CC[C@H](c2c(OC(=O)N(CCF)CC3CCCCN3)cc(O)c3c(=O)cc(-c4ccccc4Cl)oc23)[C@H](O)C1 (stereo partly shown) [Example 11]: 2.1
6) CC(C)N(CC1CCCCN1)C(=O)Oc1cc(O)c2c(=O)cc(-c3ccccc3Cl)oc2c1[C@H]1CCN(C)C[C@H]1O (stereo partly shown) [Example 10]: 2.2
7) CCN(CCC1CCCCN1)C(=O)Oc1cc(O)c2c(=O)cc(-c3ccccc3Cl)oc2c1[C@H]1CCN(C)C[C@H]1O (stereo partly shown) [Example 16]: 0.0

----------
Assay: Evaluation of conversion rate to active form in buffer solution (Experimental Example 1)
Format: physicochemical
Conditions: pH7.4, 1 hr, 37° C., 25 umol/L in buffer solution
READOUT: Residual rate (%)

1) CN1CC[C@H](c2c(OC(=O)N(CCCC(F)(F)F)CC3CCCCN3)cc(O)c3c(=O)cc(-c4ccccc4Cl)oc23)[C@H](O)C1 (some centres unmarked) [Example 14]: 0.7
2) CN1CC[C@H](c2c(OC(=O)N(CCF)CC3CCCCN3)cc(O)c3c(=O)cc(-c4ccccc4Cl)oc23)[C@H](O)C1 (some centres unmarked) [Example 11]: 16.7
3) CCCN(C[C@@H]1CCCCN1)C(=O)Oc1cc(O)c2c(=O)cc(-c3ccccc3Cl)oc2c1[C@H]1CCN(C)C[C@H]1O [Example 5]: 25.9
4) CCN(C[C@@H]1CCCCN1)C(=O)Oc1cc(O)c2c(=O)cc(-c3ccccc3Cl)oc2c1[C@H]1CCN(C)C[C@H]1O [Example 1, ditrifluoroacetate]: 29.3
5) CN1CC[C@H](c2c(OC(=O)N(CCC(F)(F)F)CC3CCCCN3)cc(O)c3c(=O)cc(-c4ccccc4Cl)oc23)[C@H](O)C1 (some centres unmarked) [Example 13]: 0.2

----------
Test: Evaluation of conversion rate to active form in buffer solution (Experimental Example 1)
Type: physicochemical
Conditions: pH5.5, 0 hr, 37° C., 25 umol/L in buffer solution
READOUT: Production rate of Alvocidib (%)

1. CCCN(C[C@@H]1CCCCN1)C(=O)Oc1cc(O)c2c(=O)cc(-c3ccccc3Cl)oc2c1[C@H]1CCN(C)C[C@H]1O: 0.0
2. CCN(C[C@H]1CCCCN1)C(=O)Oc1cc(O)c2c(=O)cc(-c3ccccc3Cl)oc2c1[C@H]1CCN(C)C[C@H]1O: 0.0
3. CN1CC[C@H](c2c(OC(=O)N(Cc3ccccc3)CC3CCCCN3)cc(O)c3c(=O)cc(-c4ccccc4Cl)oc23)[C@H](O)C1 (some centres unmarked): 1.4
4. CC(C)N(CC1CCCCN1)C(=O)Oc1cc(O)c2c(=O)cc(-c3ccccc3Cl)oc2c1[C@H]1CCN(C)C[C@H]1O (some centres unmarked): 1.6
5. CCN(C[C@@H]1CCCCN1)C(=O)Oc1cc(O)c2c(=O)cc(-c3ccccc3Cl)oc2c1[C@H]1CCN(C)C[C@H]1O [Example 1, ditrifluoroacetate]: 0.0
6. CN1CC[C@H](c2c(OC(=O)N(CCF)CC3CCCCN3)cc(O)c3c(=O)cc(-c4ccccc4Cl)oc23)[C@H](O)C1 (some centres unmarked): 0.2
7. CCCN(C[C@H]1CCCCN1)C(=O)Oc1cc(O)c2c(=O)cc(-c3ccccc3Cl)oc2c1[C@H]1CCN(C)C[C@H]1O: 0.5
8. CN1CC[C@H](c2c(OC(=O)N(C)C[C@H]3CCCCN3)cc(O)c3c(=O)cc(-c4ccccc4Cl)oc23)[C@H](O)C1: 0.4
9. CCN(CCC1CCCCN1)C(=O)Oc1cc(O)c2c(=O)cc(-c3ccccc3Cl)oc2c1[C@H]1CCN(C)C[C@H]1O (some centres unmarked): 0.0
10. CN1CC[C@H](c2c(OC(=O)N(C)C[C@@H]3CCCCN3)cc(O)c3c(=O)cc(-c4ccccc4Cl)oc23)[C@H](O)C1: 0.3
11. CN1CC[C@H](c2c(OC(=O)N(CCC(F)(F)F)CC3CCCCN3)cc(O)c3c(=O)cc(-c4ccccc4Cl)oc23)[C@H](O)C1 (some centres unmarked): 2.5
12. CCNC(=O)Oc1cc(O)c2c(=O)cc(-c3ccccc3Cl)oc2c1[C@H]1CCN(C)C[C@H]1O [Comparative Example 1, reference compound]: 8.8
13. CN1CC[C@H](c2c(OC(=O)N(C)CC3CCCCN3)cc(O)c3c(=O)cc(-c4ccccc4Cl)oc23)[C@H](O)C1 (some centres unmarked): 0.5
14. COCCN(CC1CCCCN1)C(=O)Oc1cc(O)c2c(=O)cc(-c3ccccc3Cl)oc2c1[C@H]1CCN(C)C[C@H]1O (some centres unmarked): 0.5

----------
Experiment: Evaluation of conversion rate to active form in buffer solution (Experimental Example 1)
Format: physicochemical
Conditions: pH6.0, 2 hr
Experimental: For Examples 1 to 16 and Comparative Examples 1 to 14, the attrition rate of the test compound and the conversion rate of the test compound to Alvocidib in a buffer solution were calculated by the following method. Examples 1 to 16 and Comparative Examples 1 to 14 were each left in buffer solutions adjusted to pH 5.0, 5.5, 6.0, 6.5, 7.0 and 7.4, respectively, at a concentration of 25 umol/L at 37° C. […]
Would you mind sorting the entries by Residual rate according to these classes? group 1 (below 30%), group 2 (30% to below 80%), group 3 (80% or more)

1. CNCCN(C)C(=O)Oc1cc(O)c2c(=O)cc(-c3ccccc3Cl)oc2c1[C@H]1CCN(C)C[C@H]1O [Comparative Example 14, reference compound]: group 1
2. CNC(=O)Oc1cc(O)c2c(=O)cc(-c3ccccc3Cl)oc2c1[C@H]1CCN(C)C[C@H]1O [Comparative Example 2, reference compound]: group 1
3. C[C@H](N)C(=O)O[C@@H]1CN(C)CC[C@@H]1c1c(O)cc(O)c2c(=O)cc(-c3ccccc3Cl)oc12 [Comparative Example 7, reference compound]: group 1
4. CCOC(=O)O[C@@H]1CN(C)CC[C@@H]1c1c(O)cc(O)c2c(=O)cc(-c3ccccc3Cl)oc12 [Comparative Example 3, reference compound]: group 3
5. CC(C)[C@H](N)C(=O)O[C@@H]1CN(C)CC[C@@H]1c1c(O)cc(O)c2c(=O)cc(-c3ccccc3Cl)oc12 [Comparative Example 10, reference compound]: group 3
6. CNC(=O)O[C@@H]1CN(C)CC[C@@H]1c1c(O)cc(O)c2c(=O)cc(-c3ccccc3Cl)oc12 [Comparative Example 5, reference compound]: group 3
7. CN1CC[C@H](c2c(O)cc(O)c3c(=O)cc(-c4ccccc4Cl)oc23)[C@H](OC(=O)CN)C1 [Comparative Example 8, reference compound]: group 2
8. CCNC(=O)O[C@@H]1CN(C)CC[C@@H]1c1c(O)cc(O)c2c(=O)cc(-c3ccccc3Cl)oc12 [Comparative Example 4, reference compound]: group 3
9. CN1CC[C@H](c2c(O)cc(O)c3c(=O)cc(-c4ccccc4Cl)oc23)[C@H](OC(=O)[C@@H](N)CO)C1 [Comparative Example 9, reference compound]: group 2
